- METHOD DESCRIPTION: Kinetic aqueous solubility by CLND
- Type: physicochemical
- CONDITION PARAMETERS: aqueous (not further specified), kinetic from dmso stock, high-throughput CLND
ENDPOINT LABEL: solubility (µM)

Below, 5 compounds whose answers are already recorded.
CC(C)Cc1n[nH]c2c1C(c1ccc(F)cc1)N(c1ccc(F)cc1)C2=O (stereo not shown) [Compound 23] :: 61
CCc1ccc(N2C(=O)c3[nH]nc(CC(C)C)c3C2c2ccc(F)cc2)cc1 (stereo not shown) [Compound 22] :: 9
COC(=O)c1ccc(N2C(=O)c3[nH]nc(CC(C)C)c3C2c2ccc(F)cc2)cc1 (stereo not shown) [Compound 26] :: 26
CC(C)Cc1n[nH]c2c1C(c1ccc(F)cc1)N(c1ccc(N(C)C)cc1)C2=O (stereo not shown) [Compound 21] :: 33
CCOc1ccc(N2C(=O)c3[nH]nc(CC(C)C)c3C2c2ccc(F)cc2)cc1 (stereo not shown) [Compound 19] :: 38

P. CC(C)Cc1n[nH]c2c1C(c1ccc(F)cc1)N(c1ccc(OC(F)(F)F)cc1)C2=O (stereo not shown) [Compound 20]
Q. CC(C)Cc1n[nH]c2c1C(c1ccc(F)cc1)N(c1ccc(Br)cc1)C2=O (stereo not shown) [Compound 24]
Input: Which entry has a larger number for solubility, P or Q ? Reply briefly: the label of your chosen item.
Output: Q
(Q: 9 µM, P: 5 µM)

---

- METHOD DESCRIPTION: UCSD infection assay, host cell cytotoxicity (CC50)
- Format: cell-based
- CONDITION PARAMETERS: mouse, B10R host cells infected with L. donovani; host B10R cells
Quick reference: CC50 at 72 h of the listed items.
Just the number please, in µM, no unit attached.

Here is how some compounds turned out for CC50 at 72 h.
Cc1ccc(N2C(=O)c3[nH]nc(CC(C)C)c3C2c2ccc(Br)cc2F)cn1 (centres unmarked) [BUCMD00641] :: 12.6
Cc1ccc(N2C(=O)c3[nH]nc(CC(C)C)c3C2c2ccc(F)cc2Cl)cn1 (centres unmarked) [BUCMD00642] :: 10
COc1ccc(N2C(=O)c3[nH]nc(CC(C)C)c3[C@H]2c2ccccc2Br)cn1 [CMLD010977] :: 15.8
COc1ccc(N2C(=O)c3[nH]nc(CC(C)C)c3C2c2ccccc2C)nc1 (centres unmarked) [BUCMD00645] :: 20
CC(C)Cc1n[nH]c2c1C(c1cccc(C(F)(F)F)c1)N(c1ccc3c(c1)OCO3)C2=O (centres unmarked) [CMLD011139] :: 12.6
Cc1cc(F)ccc1C1c2c(CC(C)C)n[nH]c2C(=O)N1c1ccc(N2CCN(C)CC2)nc1 (centres unmarked) [BUCMD00717] :: 7.94
CC(C)Cc1n[nH]c2c1C(c1ccc(F)cc1Cl)N(c1ccc(C(=O)N3CCCC3)cc1)C2=O (centres unmarked) [BUCMD00711] :: 5.01

Please turn your attention to the following entry.
Input: Report CC50 at 72 h, nothing else, for this compound: CC(C)Cc1n[nH]c2c1C(c1ccc(Cl)cc1Cl)N(c1ccc(N3CCN(C)CC3)nc1)C2=O (centres unmarked) [BUCMD00719]
Output: 2

---

- METHOD DESCRIPTION: Property forecast index (PFI = ChromLogD7.4 + aromatic rings)
- Type: physicochemical
ENDPOINT LABEL: PFI

P. COc1ccc(N2C(=O)c3[nH]nc(CC(C)C)c3C2c2cccc(Br)c2)cc1 (stereo not drawn)
Q. CC(C)Cc1n[nH]c2c1C(c1ccc(F)cc1)N(c1ccc(C(=O)O)cc1)C2=O (stereo not drawn)
Input: Of the pair P and Q , name the member with the lesser recorded PFI. # respond with the chosen item's label
Output: Q

---

# CC50 per entry
- METHOD DESCRIPTION: GSK inMac assay, host cell toxicity readout (LD MAC)
- Format: cell-based, human
- CONDITION PARAMETERS: human; footnote c; read-out: THP-1 Host Cell CC50
Could you give me the number in µM? Just the number is fine.

CC(C)Cc1n[nH]c2c1C(c1ccc(F)cc1)N(c1ccc(N(C)C)cc1)C2=O (centres unmarked) [CMLD011039] :: 39.8
C=CCn1nc(CC(C)C)c2c1C(=O)N(c1ccc(OC)cc1)C2c1ccc(F)cc1 (centres unmarked) [CMLD010985] :: 31.6
CC(C)Cc1n[nH]c2c1C(c1c(Cl)cccc1Cl)N(c1ccc(Br)cc1)C2=O (centres unmarked) [CMLD011550] :: 20

Input: Determine its reported CC50: COc1cccc(N2C(=O)c3[nH]nc(CC(C)C)c3C2c2ccsc2)c1 (centres unmarked) [CMLD010880]
Output: 39.8

Input: Given COc1ccc(N2C(=O)c3[nH]nc(CC(C)C)c3C2c2cccnc2Cl)cc1 (centres unmarked) [CMLD011559] , respond with its CC50.
Output: 20

Input: Identify CC50 associated with the compound CCn1nc(CC(C)C)c2c1C(=O)N(c1ccc(OC)cc1)C2c1ccc(F)cc1 (centres unmarked) [BUCMD00809]
Output: 39.8

---

Some molecules, each annotated with its measured CC50.
- METHOD DESCRIPTION: GSK inMac assay, host cell toxicity readout (LD MAC)
- Type: cell-based, human
- CONDITION PARAMETERS: human; footnote c; read-out: THP-1 Host Cell CC50
Only the number, expressed in µM, is required.

Consider the following illustrative entries.
CC(C)Cc1n[nH]c2c1C(c1cccc(C(F)(F)F)c1)N(c1ccc(Br)cc1)C2=O (centres unmarked) :: 31.6
COC(=O)c1ccc(N2C(=O)c3[nH]nc(CC(C)C)c3C2c2ccc(F)cc2)cc1 (centres unmarked) :: 31.6
Cc1cc(F)ccc1C1c2c(CC(C)C)n[nH]c2C(=O)N1c1ccc(N(C)C)cc1 (centres unmarked) :: 7.5
COc1ccc(N2C(=O)c3[nH]nc(CC(C)C)c3C2c2c(Cl)cccc2Cl)cc1 (centres unmarked) :: 2.5

Input: Please give the documented CC50 of COc1ccc(N2C(=O)c3[nH]nc(CC(C)C)c3C2c2ccsc2)cn1 (centres unmarked)
Output: 25.1

Input: Output CC50 of CC(C)Cc1n[nH]c2c1C(c1ccc(F)cc1)N(c1ccc3c(c1)OCCO3)C2=O (centres unmarked)
Output: 25.1

Input: Tell me measured CC50 for COc1ccc(N2C(=O)c3[nH]nc(CC(C)C)c3C2C2CCCCC2)cn1 (centres unmarked) please.
Output: 31.6

Input: Indicate the recorded CC50 value for this molecule: CC(C)Cc1n[nH]c2c1C(C1CCCCC1)N(c1ccc3c(c1)OCO3)C2=O (centres unmarked)
Output: 15.8

Input: Please give measured CC50 of the following entry: `CC(C)Cc1n[nH]c2c1[C@H](c1ccc(F)cc1)N(c1ccc3ncnn3c1)C2=O`
Output: 25.1

Input: Find the measured CC50 of Cc1cc(F)ccc1C1c2c(CC(C)C)n[nH]c2C(=O)N1c1ccc2c(c1)OCO2 (centres unmarked) and report it.
Output: 12.1

Input: Provide only the value of recorded CC50 for CC(C)Cc1n[nH]c2c1C(c1ccc(F)cc1)N(c1ccc(OC(F)(F)F)cc1)C2=O (centres unmarked)
Output: 7.9

Input: Output CC50 of COc1ccc(N2C(=O)c3[nH]nc(CC(C)C)c3C2C2CCCCC2)cc1 (centres unmarked)
Output: 25.1

Input: Retrieve CC50 measured for COc1ccc(N2C(=O)c3[nH]nc(CC(C)C)c3C2c2ccc(Cl)cc2)cc1 (centres unmarked) and print it.
Output: 15.9

Input: Return the recorded CC50 value; entry: CC(C)Cc1n[nH]c2c1C(c1ccc(F)cc1)N(c1ccc(F)cc1F)C2=O (centres unmarked)
Output: 39.8

---

- METHOD DESCRIPTION: Artificial membrane permeability (AMP)
- Format: in vitro ADME
- CONDITION PARAMETERS: PAMPA, pH 7.4
- Description: Passive permeability of compounds via rate of permeation through an artificial phospholipid membrane at pH 7.4 was measured in a high-throughput format, in duplicate. A solution of 1.8% phosphatidylcholine in 1% decane was added to a 96-well Millicell filter plate along with 250 μL of 50 mM phosphate buffer, pH 7.4 on the donor side, and 100 μL of the same buffer solution on the receiver side. The assay plate was shaken for 45 minutes before adding test compounds. […]
ENDPOINT LABEL: Papp at 3 h (×10⁻⁶ cm/s)

COc1ccc(N2C(=O)c3[nH]nc(CC(C)C)c3C2c2ccc(F)cc2F)cc1 (centres unmarked) :: 14
COc1ccc(N2C(=O)c3[nH]nc(CC(C)C)c3C2c2ccc(OC)nc2)cc1 (centres unmarked) :: 44
CC(C)Cc1n[nH]c2c1C(c1ccc(F)cc1)N(CCN1CCCC1)C2=O (centres unmarked) :: 23
COc1ccc(N2C(=O)c3[nH]nc(CC(C)C)c3C2c2cccc(OC)c2)cc1 (centres unmarked) :: 29
COc1ccccc1N1C(=O)c2[nH]nc(CC(C)C)c2C1c1ccc(F)cc1 (centres unmarked) :: 59

I. COc1ccc(N2C(=O)c3[nH]nc(-c4ccc(CC(C)C)cc4)c3C2c2ccc(F)cc2)cc1 (centres unmarked)
II. CC(C)Cc1n[nH]c2c1C(c1ccc(F)cc1)N(c1ccc(N(C)C)cc1)C2=O (centres unmarked)
Input: Papp at 3 h comparison. Which is larger, I or II ? // caller expects the label of the chosen entry
Output: I

P. COc1ccc(N2C(=O)c3[nH]nc(CC(C)C)c3C2c2cccs2)cc1 (centres unmarked)
Q. COc1ccc(N2C(=O)c3[nH]nc(CC(C)C)c3C2C2CCCC2)cc1 (centres unmarked)
R. CC(C)Cc1n[nH]c2c1C(c1ccc(F)cc1)N(c1ccccn1)C2=O (centres unmarked)
S. CC(C)Cc1n[nH]c2c1C(c1ccc(F)cc1)N(C1CCC(N(C)C)CC1)C2=O (centres unmarked)
Input: Arrange the 4 compounds by rising Papp at 3 h, starting with the smallest. Quick reminder: the answer is the labels in the order asked.
Output: S, R, P, Q
(S: 13 ×10⁻⁶ cm/s, R: 20 ×10⁻⁶ cm/s, P: 30 ×10⁻⁶ cm/s, Q: 59 ×10⁻⁶ cm/s)

A. COCCN1C(=O)c2[nH]nc(CC(C)C)c2C1c1ccc(F)cc1 (centres unmarked)
B. COc1ccc(N2C(=O)c3[nH]nc(CC(C)C)c3C2c2c(Cl)cccc2Cl)cc1 (centres unmarked)
C. COc1ccc(N2C(=O)c3[nH]nc(CC(C)C)c3C2c2ccc(F)cc2C)cc1 (centres unmarked)
Input: Rank order required: Papp at 3 h, descending. Returns: the labels arranged in the requested order.
Output: A, B, C
(A: 52 ×10⁻⁶ cm/s, B: 33 ×10⁻⁶ cm/s, C: 11 ×10⁻⁶ cm/s)
